All values here come from PubChem BioAssay AID1117319.

- SYSTEM: Virion infectivity factor (Human immunodeficiency virus type 1 group M subtype B (isolate BH10)) + Virion infectivity factor (Human immunodeficiency virus type 1 group M subtype B (isolate BRU/LAI)) + Virion infectivity factor (Human immunodeficiency virus type 1 group M subtype B (isolate PCV12)) + Virion infectivity factor (Human immunodeficiency virus type 1 group M subtype B (isolate HXB2)) + DNA dC->dU-editing enzyme APOBEC-3G (Homo sapiens) (UniProt P69720+P69721+P69722+P69723+Q9HC16)
- ASSAY_NOTES: inhibitors of Vif binding to APOBEC3G peptide, primary screen, biochemical, TR-FRET, GST-Vif 1-94, biotin-A3G peptide, dose response retest (AID 1117319);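 further: Vif residues 1-94 fused to GST binding biotinylated APOBEC3G peptide 110-148; 0% = full assay without inhibitor and 100% = GST in place of GST-Vif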
- APPLIED_CONDITIONS: hits give high values
The whole screen tested about 260,000 compounds, of which about 1,500 (0.58%) were called active. Not shown: some 5% with an inconclusive outcome. A selection follows. Results with a measured potency or affinity are listed apart.
ENDPOINT: inhibition (%)
Just the number in %, nothing appended.

Worked cases, answers included:
MOLECULE	inhibition / %
Nc1nc(Cn2nnc(-c3ccccc3F)n2)nc(N2CCOCC2)n1	-5.97
CC(C)CC(=O)Nc1ccnn1C1CCN(C(=O)c2ccccc2F)CC1	-2.89
O=C1NC[C@H](c2ccccc2)N(CCc2cc(C(F)(F)F)cc(C(F)(F)F)c2)C1=O	-3.13
O=C1OC/C(=C(/O)c2ccc(Cl)cc2)C1=O	-8.18
Cc1ccc(-c2cc(-c3ccc(C)o3)nc(N)c2C#N)cc1	27.2

Entry O=C(Cc1ccccc1)NC(Nc1cccc2ccccc12)C(Cl)(Cl)Cl (stereo unspecified) — recorded inhibition = -5.91

Entry Cc1ccc(-c2cc(-c3ccc(F)cc3)c(C#N)c(N)n2)o1 — recorded inhibition = 18.2

Entry CCc1cccc(NC(=O)CCNS(=O)(=O)c2cccc3nonc23)c1 — recorded inhibition = 9.44

Entry Cc1ccc(-c2cc(-c3ccc(Cl)cc3)c(C#N)c(N)n2)o1 — recorded inhibition = 24.5

Entry CC(NC(=O)COC(=O)c1cc(S(=O)(=O)N2CCOCC2)ccc1F)c1ccccc1 (stereo unspecified) — recorded inhibition = 4.22

Entry CC(C)(C)NC(NC(=O)Cc1ccccc1)C(Cl)(Cl)Cl (stereo unspecified) — recorded inhibition = 2.28
